# assay_system: T1, CD3 epsilon homodimer protein (UniProt P07766 23-126)
# T1 construct: also called CD3 (CD3 epsilon)
# T1 sequence (P07766 23-126): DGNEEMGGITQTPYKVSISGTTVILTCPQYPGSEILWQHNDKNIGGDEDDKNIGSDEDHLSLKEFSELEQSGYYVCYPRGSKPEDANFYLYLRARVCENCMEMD
# measurement_notes: SPR, antibody over immobilised CD3e homodimer;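 also: SPR at 25 °C with CD3 epsilon homodimer amine-coupled to a CM4 sensor chip and antibody flowed over as analyte in HBS-EP+ running buffer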
KD ratio to GLS3000 values, listed per item
Number only, no unit.

// known answers, use as guide
get_value(item= CE115HA000/GLS3000 Y96F (antibody, IgG1, name in Kabat numbering, V domains shown, one-arm IgG1) VH: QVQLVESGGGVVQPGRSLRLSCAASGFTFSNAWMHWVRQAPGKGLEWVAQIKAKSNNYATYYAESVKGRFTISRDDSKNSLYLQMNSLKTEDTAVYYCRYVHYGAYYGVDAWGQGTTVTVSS VL: DIVMTQSPLSLPVTPGEPASISCRSSQSLVHSNRNTYLHWYQQKPGQAPRLLIYKVSNRFSGVPDRFSGSGSGTDFTLKISRVEAEDVGVYYCGQGTQVPFTFGQGTKLEIK , readout=KD ratio to GLS3000) returns 0.86

get_value(item= CE115HA000/GLS3000 Q90Y (antibody, IgG1, name in Kabat numbering, V domains shown, one-arm IgG1) VH: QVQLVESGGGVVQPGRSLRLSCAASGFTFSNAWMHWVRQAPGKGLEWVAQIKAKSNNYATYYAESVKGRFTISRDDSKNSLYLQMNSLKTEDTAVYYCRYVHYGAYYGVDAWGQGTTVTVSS VL: DIVMTQSPLSLPVTPGEPASISCRSSQSLVHSNRNTYLHWYQQKPGQAPRLLIYKVSNRFSGVPDRFSGSGSGTDFTLKISRVEAEDVGVYYCGYGTQVPYTFGQGTKLEIK , readout=KD ratio to GLS3000) returns 38.3

Now, please, on to the next binder.
get_value(item= CE115HA000/GLS3000 V94M (antibody, IgG1, name in Kabat numbering, V domains shown, one-arm IgG1) VH: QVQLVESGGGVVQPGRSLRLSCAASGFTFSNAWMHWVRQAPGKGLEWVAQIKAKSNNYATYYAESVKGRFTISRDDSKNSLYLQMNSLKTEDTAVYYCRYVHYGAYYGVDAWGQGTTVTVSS VL: DIVMTQSPLSLPVTPGEPASISCRSSQSLVHSNRNTYLHWYQQKPGQAPRLLIYKVSNRFSGVPDRFSGSGSGTDFTLKISRVEAEDVGVYYCGQGTQMPYTFGQGTKLEIK , readout=KD ratio to GLS3000) returns 2.74
